assay: Lipophilicity, logD of the compound at pH 7 by HPLC method; type: physicochemical; settings: buffer
Quick list: logD per entry.
Measure: logD

INSERT INTO measurements (sample_smiles, recorded_value) VALUES
  ('CCc1cnc(N2CCC([C@H]3C[C@H]3COCc3ccc(S(C)(=O)=O)c(F)c3)CC2)nc1', 4.3),
  ('CCS(=O)(=O)c1ccc(COC[C@@H]2C[C@@H]2C2CCN(c3nc(C(C)C)no3)CC2)c(F)c1', 4),
  ('CC(C)c1noc(N2CCC([C@H]3C[C@H]3COCc3ccc(-n4cnnn4)cc3F)CC2)n1', 3.9),
  ('CCS(=O)(=O)c1ccc(COC[C@@H]2C[C@@H]2C2CCN(c3ncc(COC)cn3)CC2)c(F)c1', 3.8),
  ('COCc1cnc(N2CCC([C@H]3C[C@H]3COCc3ccc(CC(=O)N4CCOCC4)cc3F)CC2)nc1', 3.4);

###

assay: Plasma clearance in Beagle dog; format: ADME, organism-based, Canis lupus familiaris
Measure: clearance (mL/min/kg)

INSERT INTO measurements (sample_smiles, recorded_value) VALUES
  ('COCc1cnc(N2CCC([C@H]3C[C@H]3COCc3ccc(S(C)(=O)=O)cc3F)CC2)nc1', 6);

###

assay: Clearance in Wistar Han rat at 0.5 mg/kg, iv LC-MS/MS method; format: ADME, organism-based; conditions: in vivo
Measure: clearance (mL/min/kg)

INSERT INTO measurements (sample_smiles, recorded_value) VALUES
  ('CS(=O)(=O)c1ccc(COC[C@@H]2C[C@@H]2C2CCN(c3ncc(Cl)cn3)CC2)nc1', 9);

###

experiment: Oral bioavailability in Beagle dog; type: ADME, organism-based, Canis lupus familiaris; details: in vivo
Measure: bioavailability (%)

INSERT INTO results (sample_smiles, measure, recorded_value) VALUES
  ('COCc1cnc(N2CCC([C@H]3C[C@H]3COCc3ccc(S(C)(=O)=O)cc3F)CC2)nc1', 'bioavailability', 60);

###

assay: Plasma clearance in rhesus monkey; type: ADME, organism-based, Macaca mulatta
Measure: clearance (mL/min/kg)

INSERT INTO assay_data (sample_smiles, unit_info, recorded_value) VALUES
  ('COCc1cnc(N2CCC([C@H]3C[C@H]3COCc3ccc(S(C)(=O)=O)cc3F)CC2)nc1', 'mL/min/kg', 16);

###

assay: Fraction unbound in dog plasma; format: ADME, cell-free, Canis lupus familiaris
Measure: fraction unbound

INSERT INTO results (sample_smiles, recorded_value) VALUES
  ('COCc1cnc(N2CCC([C@H]3C[C@H]3COCc3ccc(S(C)(=O)=O)cc3F)CC2)nc1', 0.055);

###

biological target: Glucose-dependent insulinotropic receptor (Homo sapiens) (UniProt Q8TDV5); assay: Agonist activity at human GPR119 by cAMP assay relative to control; format: functional; set-up: concentration or dose not given beside the values
Sequence (Q8TDV5 whole entry): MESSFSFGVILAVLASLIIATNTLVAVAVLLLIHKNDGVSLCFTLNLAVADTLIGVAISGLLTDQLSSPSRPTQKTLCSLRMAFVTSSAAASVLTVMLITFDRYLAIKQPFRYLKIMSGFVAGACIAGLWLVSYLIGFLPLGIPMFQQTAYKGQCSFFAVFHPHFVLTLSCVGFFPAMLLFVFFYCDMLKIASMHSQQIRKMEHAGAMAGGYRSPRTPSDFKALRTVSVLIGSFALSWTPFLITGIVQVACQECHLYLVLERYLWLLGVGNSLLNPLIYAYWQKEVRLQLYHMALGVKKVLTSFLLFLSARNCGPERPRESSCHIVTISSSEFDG
# Lookup of reported Activity keyed by entry
Measure: Activity (%)

INSERT INTO measurements (molecule, recorded_value) VALUES
  ('CC(C)c1noc(N2CCC([C@H]3C[C@H]3COCc3ccc(-n4cnnn4)cc3F)CC2)n1', 129),
  ('COCc1cnc(N2CCC([C@H]3C[C@H]3COCc3cc(F)c(S(C)(=O)=O)c(F)c3)CC2)nc1', 80),
  ('CCS(=O)(=O)c1ccc(COC[C@@H]2C[C@@H]2C2CCN(c3ncc(COC)cn3)CC2)c(F)c1', 58),
  ('COC(C)c1cnc(N2CCC([C@H]3C[C@H]3COCc3ccc(S(C)(=O)=O)cc3F)CC2)nc1 (stereo in doubt; 30)', 95),
  ('CCc1cnc(N2CCC([C@H]3C[C@H]3COCc3ccc(S(C)(=O)=O)cn3)CC2)nc1', 83),
  ('COCc1cnc(N2CCC([C@H]3C[C@H]3COCc3ccc(S(C)(=O)=O)c(F)c3)CC2)nc1', 94),
  ('CC(C)c1noc(N2CCC([C@H]3C[C@H]3COCc3ccc(S(C)(=O)=O)cc3F)CC2)n1', 87),
  ('CC1(OC(=O)N2CCC([C@H]3C[C@H]3COCc3ccc(-n4cnnn4)cc3F)CC2)CC1', 121);

###

# key: entry, value: Activity
molecular target: Glucose-dependent insulinotropic receptor (Homo sapiens); assay: Agonist activity at human GPR119 by cAMP assay relative to control; type: functional; parameters: concentration or dose not given beside the values
Measure: Activity (%)

INSERT INTO assay_data (sample_smiles, recorded_value) VALUES
  ('O=S(=O)(CCO)c1ccc(COC[C@@H]2C[C@@H]2C2CCN(c3ncc(Cl)cn3)CC2)c(F)c1', 68),
  ('COCc1cnc(N2CCC([C@H]3C[C@H]3COCc3ccc(S(C)(=O)=O)cc3F)CC2)nc1', 88),
  ('COCc1cnc(N2CCC([C@H]3C[C@H]3COCc3ccc(-n4cnnn4)c(F)c3)CC2)nc1', 84),
  ('CCOc1cnc(N2CCC([C@H]3C[C@H]3COCc3ccc(S(C)(=O)=O)c(F)c3)CC2)nc1', 75),
  ('COc1cnc(N2CCC([C@H]3C[C@H]3COCc3ccc(S(C)(=O)=O)cc3F)CC2)nc1', 79);

###

target: UniProt:Q8TDV5; assay: Agonist activity at human GPR119 by cAMP assay relative to control; format: functional; parameters: concentration or dose not given beside the values
Exam item: assign TRUE to entries whose Activity is below 70% and FALSE to entries at or above 70%. Note that a value of exactly 70% receives FALSE.

INSERT INTO assay_data (molecule, class_name) VALUES
  ('COC(C)c1cnc(N2CCC([C@H]3C[C@H]3COCc3ccc(S(C)(=O)=O)cc3F)CC2)nc1 (stereo in doubt; 29)', 'FALSE'),
  ('CCc1cnc(N2CCC([C@H]3C[C@H]3COCc3ccc(S(C)(=O)=O)c(F)c3)CC2)nc1', 'FALSE'),
  ('CS(=O)(=O)c1ccc(COC[C@@H]2C[C@@H]2C2CCN(c3ncc(F)cn3)CC2)cc1F', 'FALSE'),
  ('COCc1cnc(N2CCC([C@H]3C[C@H]3COCc3ccc(CC(=O)N4CCOCC4)cc3F)CC2)nc1', 'FALSE'),
  ('CS(=O)(=O)c1ccc(COC[C@@H]2C[C@@H]2C2CCN(c3ncc(Cl)cn3)CC2)nc1', 'TRUE');

###

test: Solubility in FaSSIF; format: physicochemical; conditions: simulated gi fluid
Measure: solubility

INSERT INTO results (sample_smiles, measure, recorded_value) VALUES
  ('COCc1cnc(N2CCC([C@H]3C[C@H]3COCc3ccc(S(C)(=O)=O)cc3F)CC2)nc1', 'solubility', '56 µg/mL');

###

Target: Glucose-dependent insulinotropic receptor (Mus musculus) (UniProt Q7TQP3)
Sequence (whole entry): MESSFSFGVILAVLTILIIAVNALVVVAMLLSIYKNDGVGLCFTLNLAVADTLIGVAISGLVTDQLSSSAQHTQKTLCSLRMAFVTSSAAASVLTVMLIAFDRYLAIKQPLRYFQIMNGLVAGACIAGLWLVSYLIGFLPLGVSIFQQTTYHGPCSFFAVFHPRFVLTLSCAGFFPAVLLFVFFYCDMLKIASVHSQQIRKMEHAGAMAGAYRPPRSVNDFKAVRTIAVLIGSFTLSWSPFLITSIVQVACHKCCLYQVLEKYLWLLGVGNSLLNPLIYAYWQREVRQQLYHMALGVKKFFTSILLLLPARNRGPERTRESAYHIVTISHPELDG
Test: Agonist activity at mouse GPR119 by cAMP assay relative to control
Type: functional
Design: concentration or dose not given beside the values
# Activity listing for each entry below
Measure: Activity (%)

INSERT INTO results (molecule, measure, unit_info, recorded_value) VALUES
  ('COCc1cnc(N2CCC([C@H]3C[C@H]3COCc3cc(F)c(S(C)(=O)=O)c(F)c3)CC2)nc1', 'Activity', '%', 67),
  ('CS(=O)(=O)c1ccc(COC[C@@H]2C[C@@H]2C2CCN(c3ncc(F)cn3)CC2)cc1F', 'Activity', '%', 131),
  ('COCc1cnc(N2CCC([C@H]3C[C@H]3COCc3ccc(CC(=O)N4CCOCC4)cc3F)CC2)nc1', 'Activity', '%', 99),
  ('COCc1cnc(N2CCC([C@H]3C[C@H]3COCc3ccc(S(C)(=O)=O)cc3F)CC2)nc1', 'Activity', '%', 97),
  ('CC(C)c1noc(N2CCC([C@H]3C[C@H]3COCc3ccc(-n4cnnn4)cc3F)CC2)n1', 'Activity', '%', 105),
  ('O=S(=O)(CCO)c1ccc(COC[C@@H]2C[C@@H]2C2CCN(c3ncc(Cl)cn3)CC2)c(F)c1', 'Activity', '%', 121),
  ('CCc1cnc(N2CCC([C@H]3C[C@H]3COCc3ccc(S(C)(=O)=O)c(F)c3)CC2)nc1', 'Activity', '%', 115),
  ('COCc1cnc(N2CCC([C@H]3C[C@H]3COCc3ccc(-n4cnnn4)c(F)c3)CC2)nc1', 'Activity', '%', 75),
  ('CS(=O)(=O)c1ccc(COC[C@@H]2C[C@@H]2C2CCN(c3ncc(Cl)cn3)CC2)nc1', 'Activity', '%', 56),
  ('CC1(OC(=O)N2CCC([C@H]3C[C@H]3COCc3ccc(-n4cnnn4)cc3F)CC2)CC1', 'Activity', '%', 108),
  ('CC(C)c1noc(N2CCC([C@H]3C[C@H]3COCc3ccc(S(C)(=O)=O)cc3F)CC2)n1', 'Activity', '%', 76),
  ('CCOc1cnc(N2CCC([C@H]3C[C@H]3COCc3ccc(S(C)(=O)=O)c(F)c3)CC2)nc1', 'Activity', '%', 96),
  ('COCc1cnc(N2CCC([C@H]3C[C@H]3COCc3ccc(S(C)(=O)=O)c(F)c3)CC2)nc1', 'Activity', '%', 87),
  ('COC(C)c1cnc(N2CCC([C@H]3C[C@H]3COCc3ccc(S(C)(=O)=O)cc3F)CC2)nc1 (stereo in doubt; 29)', 'Activity', '%', 109),
  ('CCc1cnc(N2CCC([C@H]3C[C@H]3COCc3ccc(S(C)(=O)=O)cn3)CC2)nc1', 'Activity', '%', 153),
  ('COC(C)c1cnc(N2CCC([C@H]3C[C@H]3COCc3ccc(S(C)(=O)=O)cc3F)CC2)nc1 (stereo in doubt; 30)', 'Activity', '%', 70),
  ('CCS(=O)(=O)c1ccc(COC[C@@H]2C[C@@H]2C2CCN(c3ncc(COC)cn3)CC2)c(F)c1', 'Activity', '%', 87),
  ('COc1cnc(N2CCC([C@H]3C[C@H]3COCc3ccc(S(C)(=O)=O)cc3F)CC2)nc1', 'Activity', '%', 85);
